tested on: KRAS PDC multicell spheroid viability; test: Anticancer human tumor 825966-067-R-J1-PDC patient-derived colon carcinoma cell line growth inhibition [KRAS2]; conditions: second compound 3.16 µM; first compound 10 µM; stronger effect = lower value;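 further: spheroids exposed to compounds for 7 days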
Binning rule for recorded viability, T/C: lower level (below 4%), middle level (4% to below 50%), upper level (50% or more)

Here's what some known entries look like.
compound: CC1(C)CCC(CN2CCN(c3ccc(C(=O)NS(=O)(=O)c4ccc(NCC5CCOCC5)c([N+](=O)[O-])c4)c(Oc4cnc5[nH]ccc5c4)c3)CC2)=C(c2ccc(Cl)cc2)C1 + C=CC(=O)N1CCN(c2nc(=O)n(-c3c(C)ccnc3C(C)C)c3nc(-c4c(O)cccc4F)c(F)cc23)C(C)C1
classification: lower level

compound: COc1cc(Nc2ncc3c(n2)-c2ccc(Cl)cc2C(c2c(F)cccc2OC)=NC3)ccc1C(=O)O + C=CC(=O)N1CCN(c2nc(OCC3CCCN3C)nc3c2CCN(c2cccc4cccc(C)c24)C3)CC1CC#N
classification: middle level

compound: COc1cc2nccc(Oc3ccc(NC(=O)C4(C(=O)Nc5ccc(F)cc5)CC4)cc3)c2cc1OC + C=CC(=O)N1CCN(c2nc(OCC3CCCN3C)nc3c2CCN(c2cccc4cccc(C)c24)C3)CC1CC#N
classification: lower level

compound: CC1OCC2(CCN(c3cnc(Sc4ccnc(N)c4Cl)c(N)n3)CC2)C1N (stereo not given) + COc1cc2nc(C)nc(NC(C)c3cc(N)cc(C(F)(F)F)c3)c2cc1OC1CCOC1
classification: middle level

compound: O=C(c1cc(Cc2n[nH]c(=O)c3ccccc23)ccc1F)N1CCN(C(=O)C2CC2)CC1 + CC1OCC2(CCN(c3cnc(Sc4ccnc(N)c4Cl)c(N)n3)CC2)C1N
classification: upper level

compound: COC(=O)c1ccc2c(C(=Nc3ccc(N(C)C(=O)CN4CCN(C)CC4)cc3)c3ccccc3)c(O)[nH]c2c1 + CNCc1ccccc1-c1csc(C(C)Nc2nc(C)nc3cc(OC)c(OC)cc23)c1
classification: lower level

compound: Cn1nccc1Nc1nccc(-c2cc3c(s2)C(C)(C)N(CCN2CCOCC2)C3=O)n1 + COc1cc2nc(C)nc(NC(C)c3cc(N)cc(C(F)(F)F)c3)c2cc1OC1CCOC1
classification: middle level

compound: Cn1nccc1Nc1nccc(-c2cc3c(s2)C(C)(C)N(CCN2CCOCC2)C3=O)n1 + CC1OCC2(CCN(c3cnc(Sc4ccnc(N)c4Cl)c(N)n3)CC2)C1N
classification: upper level

compound: COc1cc2nccc(Oc3ccc(NC(=O)C4(C(=O)Nc5ccc(F)cc5)CC4)cc3)c2cc1OC + CC1OCC2(CCN(c3cnc(Sc4ccnc(N)c4Cl)c(N)n3)CC2)C1N
classification: middle level

compound: COc1cc(Nc2ncc3c(n2)-c2ccc(Cl)cc2C(c2c(F)cccc2OC)=NC3)ccc1C(=O)O + C=CC(=O)N1CCN(c2nc(=O)n(-c3c(C)ccnc3C(C)C)c3nc(-c4c(O)cccc4F)c(F)cc23)C(C)C1
classification: upper level

Moving on to another compound below.
Task: Bin? CC1(C)CCC(CN2CCN(c3ccc(C(=O)NS(=O)(=O)c4ccc(NCC5CCOCC5)c([N+](=O)[O-])c4)c(Oc4cnc5[nH]ccc5c4)c3)CC2)=C(c2ccc(Cl)cc2)C1 + COc1cc2nc(C)nc(NC(C)c3cc(N)cc(C(F)(F)F)c3)c2cc1OC1CCOC1
Output: lower level
